// provenance: ChEMBL document CHEMBL1961873

Molecular target: Dual specificity tyrosine-phosphorylation-regulated kinase 1A (Homo sapiens) (UniProt Q13627)
Conditions: at 0.1 µM
Description: GSK_PKIS: DYRK1A mean inhibition at 0.1 uM [Nanosyn]
inhibition reference
Entry rule: numbers only, all in %.

Measured inhibition of CCCNc1cccc(-n2ncc3c(N/N=C/c4ccncc4)ncnc32)c1 : 1.44

Measured inhibition of CNC(=O)c1sc(-n2cnc3cc(OC)c(OC)cc32)cc1OCc1ccccc1C(F)(F)F : 1.4

Measured inhibition of O=C1Nc2ccccc2/C1=C1\CCc2cc(O)ccc21 : 7.28

Others:
Measured inhibition of COc1ccc(Nc2ncc(-c3ccccc3)o2)cc1OC : 8.15

Measured inhibition of O=C(O[C@H]1CN[C@H](C#Cc2cc3ncnc(Nc4ccc5c(cnn5Cc5ccccc5)c4)c3s2)C1)N1CCOCC1 : -4.04

Measured inhibition of COc1cc(N2CCN(C(C)C)CC2)ccc1Nc1nc(Nc2cccc3ncccc23)c2cc[nH]c2n1 : 0.19

Measured inhibition of COc1c(C(N)=O)cc(-c2ccc(Cl)cc2)cc1-c1ccc(S(N)(=O)=O)cc1 : 3.11

Measured inhibition of CC1=C(C(=O)Nc2ccc3[nH]ncc3c2)C(c2ccc(F)cc2)N=C(c2ccc(C(F)(F)F)nc2)N1 (centres undefined) : 1.92

Measured inhibition of c1ccc(-c2n[nH]cc2-c2ccnc(-c3ccc(OCCn4ccnc4)cc3)c2)nc1 : 3.79
